Task for the reader: assign each of the following substances its reported z-score 2.2.
Target: Bcl-xL (Homo sapiens)
Construct: myc-Bcl-xL SPOT array & FP; made in house
Sequence (Q07817 with tags, fused parts or gaps): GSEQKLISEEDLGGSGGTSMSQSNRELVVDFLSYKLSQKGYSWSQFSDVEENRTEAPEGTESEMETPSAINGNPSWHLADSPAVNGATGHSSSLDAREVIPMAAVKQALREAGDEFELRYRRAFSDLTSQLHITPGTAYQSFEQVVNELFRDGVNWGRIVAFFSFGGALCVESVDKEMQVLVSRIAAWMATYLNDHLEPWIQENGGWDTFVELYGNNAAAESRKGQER
Assay: LUMIER full-length protein interaction
Type: binding
Conditions: LUMIER results for Bcl-xL; Z-score of the interaction relative to the Gaussian fit of the data; experiment 2, duplicate 2

Enter measured z-score 2.2, system Bcl-xL (Homo sapiens), for the substance shown: WDR60 (GGRVKLVHSALIQLGDSLSHKGNEFW)
0.3897

Enter measured z-score 2.2, system Bcl-xL (Homo sapiens), for the substance shown: PRKD3 (IQENVDISTVYQIFADEVLGSGQFGI)
5.133

Enter measured z-score 2.2, system Bcl-xL (Homo sapiens), for the substance shown: BAK1 (SSTMGQVGRQLAIIGDDINRRYDSEF)
1.82

Enter measured z-score 2.2, system Bcl-xL (Homo sapiens), for the substance shown: CCDC57 (QAGPVSSGLALRKLGDRVQLLNLLVT)
0.8316

###

Molecular target: Bcl-xL (Homo sapiens)
Construct: myc-Bcl-xL SPOT array & FP; made in house
Experiment: LUMIER full-length protein interaction
Format: binding
Conditions: LUMIER results for Bcl-xL; Z-score relative to Gaussian fit of the data; experiment 1, duplicate 1
Task for the reader: assign each of the following substances its reported z-score 1.1.
No unit in the answer, please; the number alone is enough.

Answer with the recorded z-score 1.1 of PPAT (RLRQLGVAKKFGVLSDNFKGKRIVLV) only.
-0.3811

Answer with the recorded z-score 1.1 of DHX30 (PVESSWIAPELRLQSDDILPLGKDSG) only.
5.589

Answer with the recorded z-score 1.1 of NOL8 (KYDPSKYCHNLKKIGEDFSNTIPISS) only.
1.001

Answer with the recorded z-score 1.1 of CTSL2 (SQGKHGFTMAMNAFGDMTNEEFRQMM) only.
-0.437

Answer with the recorded z-score 1.1 of SMPD2 (PYLSKHRADRMRRLGDFLNQESFDLA) only.
-0.2083

Answer with the recorded z-score 1.1 of DSN1 (RAKASSLSEELKHFADGLETDGTLQK) only.
-1.115

Answer with the recorded z-score 1.1 of FADD (APGEEDLCAAFNVICDNVGKDWRRLA) only.
-1.0584

Answer with the recorded z-score 1.1 of TAP1 (MSILTIASAVLEFVGDGIYNNTMGHV) only.
3.909

Answer with the recorded z-score 1.1 of WRAP53 (RKDAELLCWDLRQSGYPLWSLGREVT) only.
0.8939

Answer with the recorded z-score 1.1 of DPF3 (SCMATVIHNPLKALGDQFYKEAIEHC) only.
4.341

Answer with the recorded z-score 1.1 of COL2A1 (VLLTLLVAAVLRCQGQDVQEAGSCVQ) only.
1.515

Answer with the recorded z-score 1.1 of TMEM184C (SDIRDDISEQVRHVGRTVRGHPRKKL) only.
-0.516

Answer with the recorded z-score 1.1 of NRN1L (DTIYQGFAECLIRLGDSMGRGGELET) only.
-0.79

Answer with the recorded z-score 1.1 of C7orf26 (FDHMVPLVEEINRLADELNPLNASQE) only.
0.6785

Answer with the recorded z-score 1.1 of PCNXL2 (LLDFFMVSILFSKLGDLLHKLQFVLT) only.
-0.7258

Answer with the recorded z-score 1.1 of P2RX7 (QCPIFRLGDIFRETGDNFSDVAIQGG) only.
0.2486

Answer with the recorded z-score 1.1 of FBXL3 (CHGLRELALNYHLLSDELLLALSSEK) only.
-0.4003

Answer with the recorded z-score 1.1 of SIPA1 (TAGLRPGARLLRVCGQTLPSLRPEAA) only.
0.6815

Answer with the recorded z-score 1.1 of FUT8 (KKLKNLEGNELQRHADEFLLDLGHHE) only.
-1.728

Answer with the recorded z-score 1.1 of RBL1 (WTLFVYTKGNFRMIGDDLVNSYHLLL) only.
5.112

Answer with the recorded z-score 1.1 of PRCP (DDMFEPHSWNLKELSDDCFQQWGVRP) only.
-0.9043

Answer with the recorded z-score 1.1 of IPO5 (SEIMHSFAKCIEVMGDGCLNNEHFEE) only.
8.932

Answer with the recorded z-score 1.1 of HEXDC (VLELHPGAQRLHIGCDEVYYLGEGEA) only.
-0.9348

Answer with the recorded z-score 1.1 of ZNF295 (ERLKGQLCDVLLIVGDQKFRAHKNVL) only.
0.6872

Answer with the recorded z-score 1.1 of DZIP3 (NGGLLEFHKSLQEIGDKNDHWFDIDP) only.
0.7197

Answer with the recorded z-score 1.1 of CYBB (APEEDFFSIHIRIVGDWTEGLFNACG) only.
0.3673
